experiment: Cytotoxicity against African green monkey Vero E6 cells assessed as inhibition of cell growth incubated for 48 hrs by MTT assay; assay type: toxicity, cell-based, Vero C1008; settings: chlorocebus sabaeus
measured quantity: CC50 at 48 h

| smiles string | CC50 at 48 h |
| --- | --- |
| COc1cccc(OC)c1NC(=O)[C@]12CC[C@@H](C)[C@H](C)[C@H]1C1=CC[C@@H]3[C@@]4(C)CC[C@H](O[C@@H]5O[C@H](CO)[C@@H](O[C@@H]6O[C@@H](C)[C@H](O)[C@@H](O)[C@H]6O)[C@H](O)[C@H]5O[C@@H]5O[C@@H](C)[C@H](O)[C@@H](O)[C@H]5O)C(C)(C)[C@@H]4CC[C@@]3(C)[C@]1(C)CC2 | > 100 µM |

We next turn to a different compound, shown below.
Task: Requested field: CC50 at 48 h. Item: `COc1ccccc1NC(=O)[C@]12CC[C@@H](C)[C@H](C)[C@H]1C1=CC[C@@H]3[C@@]4(C)CC[C@H](O[C@@H]5O[C@H](CO)[C@@H](O[C@@H]6O[C@@H](C)[C@H](O)[C@@H](O)[C@H]6O)[C@H](O)[C@H]5O[C@@H]5O[C@@H](C)[C@H](O)[C@@H](O)[C@H]5O)C(C)(C)[C@@H]4CC[C@@]3(C)[C@]1(C)CC2`
Output: > 100 µM

====

assay: Cytotoxicity against human HEK293T cells overexpressing human ACE2 assessed as inhibition of cell growth incubated for 48 hrs by MTT assay; type: toxicity, cell-based, HEK-293T
Reported CC50 at 48 h values for the following molecules.

Take a look at these entries with their results.
| smiles string | CC50 at 48 h |
| --- | --- |
| COc1cccc(OC)c1NC(=O)[C@]12CC[C@@H](C)[C@H](C)[C@H]1C1=CC[C@@H]3[C@@]4(C)CC[C@H](O[C@@H]5O[C@H](CO)[C@@H](O[C@@H]6O[C@@H](C)[C@H](O)[C@@H](O)[C@H]6O)[C@H](O)[C@H]5O[C@@H]5O[C@@H](C)[C@H](O)[C@@H](O)[C@H]5O)C(C)(C)[C@@H]4CC[C@@]3(C)[C@]1(C)CC2 | > 100 µM |
| COc1ccccc1NC(=O)[C@]12CC[C@@H](C)[C@H](C)[C@H]1C1=CC[C@@H]3[C@@]4(C)CC[C@H](O[C@@H]5O[C@H](CO)[C@@H](O[C@@H]6O[C@@H](C)[C@H](O)[C@@H](O)[C@H]6O)[C@H](O)[C@H]5O[C@@H]5O[C@@H](C)[C@H](O)[C@@H](O)[C@H]5O)C(C)(C)[C@@H]4CC[C@@]3(C)[C@]1(C)CC2 | 43.3 µM |
| C[C@H]1[C@H](C)CC[C@]2(C(=O)NCc3ccccc3)CC[C@]3(C)C(=CC[C@@H]4[C@@]5(C)CC[C@H](O[C@@H]6O[C@H](CO)[C@@H](O[C@@H]7O[C@@H](C)[C@H](O)[C@@H](O)[C@H]7O)[C@H](O)[C@H]6O[C@@H]6O[C@@H](C)[C@H](O)[C@@H](O)[C@H]6O)C(C)(C)[C@@H]5CC[C@]43C)[C@H]12 | > 100 µM |

Task: Requested field: CC50 at 48 h. Item: `COc1ccc(CNC(=O)[C@]23CC[C@@H](C)[C@H](C)[C@H]2C2=CC[C@@H]4[C@@]5(C)CC[C@H](O[C@@H]6O[C@H](CO)[C@@H](O[C@@H]7O[C@@H](C)[C@H](O)[C@@H](O)[C@H]7O)[C@H](O)[C@H]6O[C@@H]6O[C@@H](C)[C@H](O)[C@@H](O)[C@H]6O)C(C)(C)[C@@H]5CC[C@@]4(C)[C@]2(C)CC3)cc1`
Output: > 100 µM

Provenance of the data: ChEMBL document CHEMBL5113397
